Please respond with reported Population Mitochondria Different-Phenotype (%) for every item in the list.
Tested on: U2OS
Test Protocol: Multiplex assay against U2OS
Format: toxicity, cell-based
Condition Info: human, 24 h, 1 µM, compound concentration 1 uM, replicate 2
The response must be a number in % with no trailing unit.

// query Report value only: Population Mitochondria Different-Phenotype (%), U2OS, COc1ccccc1CN[C@H]1C2CCN(CC2)[C@H]1C(c1ccccc1)c1ccccc1 [CP-96345]
// result 4

// query Print U2OS Population Mitochondria Different-Phenotype (%) for CC(C)CC(=O)Nc1[nH]nc2c1CN(C(=O)C1CCN(C)CC1)C2(C)C [PHA-793887] .
// result 43

// query Report the value of Population Mitochondria Different-Phenotype (%) obtained on U2OS for CC(C)c1noc(N2CCC(COc3ccc(-c4ccc(S(C)(=O)=O)cc4)nc3)CC2)n1 [GSK-1292263] .
// result 10

// query Write down measured Population Mitochondria Different-Phenotype (%) (U2OS) for this compound. Cc1c[nH]c2nccc(Oc3c(F)cc(Nc4cc(Cl)nc(N)n4)cc3F)c12 [BAY-549]
// result 7
